# target_of_assay: T1, DDX3Y peptide on HLA-A*02:01 (human)
# T1 peptide: FLLDILGAT
# protocol_details: killing

binder	binding result
Clone2-6B8 (TCR, V domains shown) Valpha: QKEVEQNSGPLSVPEGAIASLNCTYSDRGSQSFFWYRQYSGKSPELIMFIYSNGDKEDGRFTAQLNKASQYVSLLIRDSQPSDSATYLCAVPDDAGNMLTFGGGTRLMVKP Vbeta: DAGITQSPRYKITETGRQVTLMCHQTWSHSYMFWYRQDLGHGLRLIYYSAAADITDKGEVPDGYVVSRSKTENFPLTLESATRSQTSVYFCASSELPAGGTNEQFFGPGTRLTVL	no recognition
Clone3-6C3 (TCR, V domains shown) Valpha: AQTVTQSQPEMSVQEAETVTLSCTYDTSESDYYLFWYKQPPSRQMILVIRQEAYKQQNATENRFSVNFQKAAKSFSLKISDSQLGDAAMYFCSSGGGADGLTFGKGTHLIIQP Vbeta: NAGVTQTPKFRVLKTGQSMTLLCAQDMNHEYMYWYRQDPGMGLRLIHYSVGEGTTAKGEVPDGYNVSRLKKQNFLLGLESAAPSQTSVYFCASMDLAFKQYFGPGTRLTVT	no recognition

The origin of these recorded values is patent US20220267403A1.
